ASSAYED_TARGET: Cannabinoid receptor 1 (Homo sapiens)
RUN_DESCRIPTION: Negative allosteric modulation of human CB1 extracted from HEK293 cell membrane assessed as increase in forskolin-induced cAMP production preincubated for 15 mins followed by forskolin/CP55940 addition by BRET CAMYEL cAMP assay
RECORDED_ENDPOINT: pIC50
Remember, pIC50 is on a log scale: it is -log10 of the molar concentration.

pIC50 reported for this compound `O=c1c(NCCc2cccc(Cl)c2)c(Nc2ccc(Cl)cc2)c1=O` : 6.83

* * *

RUN_DESCRIPTION: Drug concentration in brain of Sprague-Dawley rat at 5.6 mg/kg, ip measured after 0.5 hrs by LC-MS/MS analysis
Type: ADME, organism-based
COND: read-out: Ct
RECORDED_ENDPOINT: concentration at 0.5 h (ng/mL)
Could you give me the number in ng/mL? Just the number is fine.

concentration at 0.5 h reported for this molecule `O=c1c(NCCc2cccc(Cl)c2)c(Nc2ccc(Cl)cc2)c1=O` : 59.5

* * *

RUN_DESCRIPTION: Drug concentration in plasma of Sprague-Dawley rat at 5.6 mg/kg, ip measured after 1 hr by LC-MS/MS analysis
Assay type: ADME, organism-based
RECORDED_ENDPOINT: concentration at 1 h (ng/mL)
Could you give me the number in ng/mL? Just the number is fine.

concentration at 1 h reported for this compound `O=c1c(NCCc2cccc(Cl)c2)c(Nc2ccc(Cl)cc2)c1=O` : 12.1

* * *

RUN_DESCRIPTION: Kinetic solubility of compound in PBS incubated for 2 hrs by LC-MS/MS analysis
Type: physicochemical
COND: read-out: Kinetic_solubility
RECORDED_ENDPOINT: solubility kinetic at 2 h

solubility kinetic at 2 h reported for this compound `O=c1c(NCCc2cccc(Cl)c2)c(Nc2ccc(Cl)cc2)c1=O` : < 1 µg/mL

* * *

ASSAYED_TARGET: Cannabinoid receptor 1 (Homo sapiens)
RUN_DESCRIPTION: Negative allosteric modulation of human CB1 receptor stably expressed in CHO-RD-HGA16 cells assessed as inhibition of CP55940-induced intracellular calcium mobilization incubated for 15 mins by FLIPR assay
Format: functional, cell-based
RECORDED_ENDPOINT: IC50 (µM)

Below: 3 compounds and their reported IC50.
>>> meas_value("O=c1c(NCCCc2ccccc2)c(Nc2ccc(Cl)cc2)c1=O")
0.871
>>> meas_value("O=c1c(NCCc2cccc(C(F)(F)F)c2)c(Nc2ccc(Cl)cc2)c1=O")
0.339
>>> meas_value("Cc1ccc(CCNc2c(Nc3ccc(Cl)cc3)c(=O)c2=O)cc1")
0.158

[1] O=c1c(NCCc2cccc(F)c2)c(Nc2ccc(Cl)cc2)c1=O
[2] O=c1c(NCCc2cccs2)c(Nc2ccc(Cl)cc2)c1=O
[3] Cc1cccc(CCNc2c(Nc3ccc(Cl)cc3)c(=O)c2=O)c1
[4] Cc1ccc(CCNc2c(Nc3ccc(Cl)cc3)c(=O)c2=O)cc1C
// smallest IC50 at index 0, largest at the end A complete answer lists every label in the requested sequence.
3, 1, 4, 2

[I] O=c1c(NCCc2ccccc2F)c(Nc2ccc(Cl)cc2)c1=O
[II] O=c1c(NCCc2ccc(F)cc2F)c(Nc2ccc(Cl)cc2)c1=O
[III] COc1ccc(CCNc2c(Nc3ccc(Cl)cc3)c(=O)c2=O)cc1
Sort by IC50, descending. A complete answer lists every label in the requested sequence.
II, III, I

[A] O=c1c(NCCc2ccccc2)c(Nc2ccc(Cl)cc2)c1=O
[B] O=c1c(NCCc2ccccc2Cl)c(Nc2ccc(Cl)cc2)c1=O
[C] CN(C)c1ccc(CCNc2c(Nc3ccc(Cl)cc3)c(=O)c2=O)cc1
Sort by IC50, descending. A complete answer lists every label in the requested sequence.
B, C, A

* * *

RUN_DESCRIPTION: Drug concentration in brain of Sprague-Dawley rat at 5.6 mg/kg, ip measured after 0.25 hrs by LC-MS/MS analysis
Type: ADME, organism-based
COND: read-out: Ct
RECORDED_ENDPOINT: concentration at 0.25 h (ng/mL)
Could you give me the number in ng/mL? Just the number is fine.

concentration at 0.25 h reported for this compound `O=c1c(NCCc2cccc(Cl)c2)c(Nc2ccc(Cl)cc2)c1=O` : 173

* * *

RUN_DESCRIPTION: Drug concentration in plasma of Sprague-Dawley rat at 5.6 mg/kg, ip measured after 0.5 hrs by LC-MS/MS analysis
Assay type: ADME, organism-based
RECORDED_ENDPOINT: concentration at 0.5 h (ng/mL)
Could you give me the number in ng/mL? Just the number is fine.

concentration at 0.5 h reported for this molecule `O=c1c(NCCc2cccc(Cl)c2)c(Nc2ccc(Cl)cc2)c1=O` : 11.7

* * *

RUN_DESCRIPTION: Drug concentration in brain of Sprague-Dawley rat at 5.6 mg/kg, ip measured after 8 hrs by LC-MS/MS analysis
Assay type: ADME, organism-based
COND: read-out: Ct
RECORDED_ENDPOINT: concentration at 8 h (ng/mL)
Could you give me the number in ng/mL? Just the number is fine.

concentration at 8 h reported for this compound `O=c1c(NCCc2cccc(Cl)c2)c(Nc2ccc(Cl)cc2)c1=O` : 54.8

* * *

ASSAYED_TARGET: Cannabinoid receptor 1 (Homo sapiens, UniProt P21554)
Sequence (P21554 whole entry): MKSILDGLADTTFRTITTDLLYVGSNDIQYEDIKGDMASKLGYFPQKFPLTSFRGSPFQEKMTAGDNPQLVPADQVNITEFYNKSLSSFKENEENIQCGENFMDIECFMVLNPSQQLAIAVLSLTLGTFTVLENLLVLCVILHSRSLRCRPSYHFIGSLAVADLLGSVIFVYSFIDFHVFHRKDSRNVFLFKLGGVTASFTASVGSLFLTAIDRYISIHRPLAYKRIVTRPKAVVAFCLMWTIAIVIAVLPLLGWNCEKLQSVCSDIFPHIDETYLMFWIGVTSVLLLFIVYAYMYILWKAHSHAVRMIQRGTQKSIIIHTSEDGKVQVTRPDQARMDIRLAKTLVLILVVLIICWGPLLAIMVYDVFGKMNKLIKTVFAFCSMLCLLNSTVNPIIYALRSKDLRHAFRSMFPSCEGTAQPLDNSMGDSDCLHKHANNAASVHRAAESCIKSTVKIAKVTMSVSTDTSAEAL
RUN_DESCRIPTION: Negative allosteric modulation of human CB1 extracted from HEK293 cell membrane assessed as specific binding of [3H]CP55940 incubated for 90 mins
RECORDED_ENDPOINT: EC50 (nM)
Could you give me the number in nM? Just the number is fine.

EC50 reported for this molecule `O=c1c(NCCc2cccc(Cl)c2)c(Nc2ccc(Cl)cc2)c1=O` : 692

* * *

ASSAYED_TARGET: Cannabinoid receptor 1 (Homo sapiens)
RUN_DESCRIPTION: Negative allosteric modulation of human CB1 receptor extracted from HEK293 cell membrane in presence of [35S]GTP-gammaS
Format: cell membranes
RECORDED_ENDPOINT: IC50 (µM)
Could you give me the number in µM? Just the number is fine.

IC50 reported for this compound `O=c1c(NCCc2ccccc2F)c(Nc2ccc(Cl)cc2)c1=O` : 6.61

* * *

RUN_DESCRIPTION: Drug concentration in plasma of Sprague-Dawley rat at 5.6 mg/kg, ip measured after 8 hrs by LC-MS/MS analysis
Assay type: ADME, organism-based
RECORDED_ENDPOINT: concentration at 8 h (ng/mL)
Could you give me the number in ng/mL? Just the number is fine.

concentration at 8 h reported for this molecule `O=c1c(NCCc2cccc(Cl)c2)c(Nc2ccc(Cl)cc2)c1=O` : 4.6
